Molecular target: Calpain 1 (Homo sapiens)
Sequence (P04632 whole entry): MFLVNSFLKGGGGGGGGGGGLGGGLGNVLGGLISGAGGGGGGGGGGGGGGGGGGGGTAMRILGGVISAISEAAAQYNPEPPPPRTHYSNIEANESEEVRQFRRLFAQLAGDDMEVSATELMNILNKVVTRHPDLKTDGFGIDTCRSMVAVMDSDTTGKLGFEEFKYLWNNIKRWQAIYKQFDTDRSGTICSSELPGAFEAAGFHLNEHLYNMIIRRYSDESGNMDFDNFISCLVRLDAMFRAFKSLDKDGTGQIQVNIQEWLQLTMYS
Sequence (P07384 whole entry): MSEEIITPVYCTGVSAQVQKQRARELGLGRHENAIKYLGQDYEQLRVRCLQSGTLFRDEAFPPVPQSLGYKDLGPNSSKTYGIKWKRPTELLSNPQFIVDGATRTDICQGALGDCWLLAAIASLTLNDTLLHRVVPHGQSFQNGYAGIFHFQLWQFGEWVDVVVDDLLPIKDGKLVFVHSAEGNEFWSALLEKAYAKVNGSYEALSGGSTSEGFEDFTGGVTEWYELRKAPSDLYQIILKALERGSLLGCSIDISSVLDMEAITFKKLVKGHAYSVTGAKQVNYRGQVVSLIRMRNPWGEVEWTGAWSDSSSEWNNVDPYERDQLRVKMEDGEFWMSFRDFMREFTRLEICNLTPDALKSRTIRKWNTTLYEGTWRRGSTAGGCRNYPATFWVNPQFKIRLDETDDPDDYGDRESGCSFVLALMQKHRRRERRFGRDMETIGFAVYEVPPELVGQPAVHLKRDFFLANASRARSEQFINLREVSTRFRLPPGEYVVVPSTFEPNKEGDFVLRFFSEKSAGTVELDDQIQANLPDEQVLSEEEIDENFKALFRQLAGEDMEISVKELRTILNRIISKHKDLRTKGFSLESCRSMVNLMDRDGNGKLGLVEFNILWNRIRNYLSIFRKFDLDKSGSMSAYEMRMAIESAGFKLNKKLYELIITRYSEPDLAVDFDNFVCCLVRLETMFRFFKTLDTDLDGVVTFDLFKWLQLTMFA
Test: Inhibitory activity against Calpain I
Where a SMILES comes first, the peptide text is derived from it. [ ]: non-standard residue; d: D form. Nle = CCCC[C@H](N)C(=O)O
outcome.measure: pIC50
pIC50 is defined as minus the log10 of a concentration measured in mol/L.

Could you tell me which pIC50 is on file for CCCC[C@@H](C=O)NC(=O)[C@H](CC(C)C)NC(=O)[C@H](CC(C)C)NC(C)=O (Ac-Leu-Leu-[Nle]-aldehyde) ? 5.15

###

Tested on: RAW
Assay: Antiproliferative activity against murine macrophage (RAW) cell line
Type: functional, cell-based
Details: Mus musculus
outcome.measure: IC50 (µM)
The reply should be a number in µM, with the unit left off.

COc1ccc2c(c1)C(CC(=O)N[C@@H](CC(C)C)C(=O)N[C@H](CC(C)C)C(=O)NCc1ccccc1)CC2=O (some centres not stated)    7

Please turn your attention to the following entry.
Could you tell me which IC50 is on file for COc1ccc2c(c1)C(CC(=O)N[C@@H](CC(C)C)C(=O)N[C@H](CC(C)C)C(=O)NCc1c(F)cccc1F)CC2=O (some centres not stated) ? 8
